# system tested: Beta-secretase 1 (Homo sapiens, UniProt P56817)
# Sequence (P56817 whole entry): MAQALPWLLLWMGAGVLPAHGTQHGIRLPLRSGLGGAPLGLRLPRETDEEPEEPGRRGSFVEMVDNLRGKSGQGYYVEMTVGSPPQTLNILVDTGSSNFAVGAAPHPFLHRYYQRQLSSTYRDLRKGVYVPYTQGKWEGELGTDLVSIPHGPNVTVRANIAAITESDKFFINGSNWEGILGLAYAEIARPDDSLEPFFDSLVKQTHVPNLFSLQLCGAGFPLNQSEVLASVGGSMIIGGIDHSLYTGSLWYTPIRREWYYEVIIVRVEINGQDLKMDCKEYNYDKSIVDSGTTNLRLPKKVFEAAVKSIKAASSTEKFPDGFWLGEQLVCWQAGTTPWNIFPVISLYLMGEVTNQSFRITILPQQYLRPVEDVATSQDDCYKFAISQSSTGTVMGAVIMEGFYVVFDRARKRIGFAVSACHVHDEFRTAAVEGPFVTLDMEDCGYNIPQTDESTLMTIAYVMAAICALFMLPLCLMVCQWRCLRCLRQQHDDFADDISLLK
# test method notes: Inhibition of human recombinant BACE-1 using acetyl-C(W8044-Eu)-EVNLDAEFK-QSY7 as substrate by TR-FRET assay
assay endpoint: IC50 (µM)

Known results for compounds:
[
  {
    "compound": "CC(C)(C)OC(=O)N1CCN(c2cccc3c2NC(=O)[C@H](c2ccccc2)N=C3c2ccccc2)CC1",
    "measurement units": "µM",
    "IC50": 35
  },
  {
    "compound": "CC(C)(C)OC(=O)N1CCN(CC(O)c2ccc(C(=O)c3ccccc3)c(NC(=O)[C@H](NC(=O)OCc3ccccc3)c3ccccc3)c2)CC1 (some centres undefined)",
    "measurement units": "µM",
    "IC50": 4.9
  }
]

a = O=C(N[C@H](C(=O)Nc1cc(C(O)CNCc2ccccc2)ccc1C(=O)c1ccccc1)c1ccccc1)OCc1ccccc1 (some centres undefined)
b = O=C(N[C@H](C(=O)Nc1cc(C(CO)NCc2ccccc2)ccc1C(=O)c1ccccc1)c1ccccc1)OCc1ccccc1 (some centres undefined)
a or b : whose IC50 is greater? // output: label of the selected item
b
(b: 4.1 µM, a: 2.4 µM)
